Hey, just so you know, these numbers are from ChEMBL document CHEMBL3425433.

subject.of.test: NAD-dependent protein deacetylase sirtuin-2 (Homo sapiens) (UniProt Q8IXJ6)
Sequence (Q8IXJ6 whole entry): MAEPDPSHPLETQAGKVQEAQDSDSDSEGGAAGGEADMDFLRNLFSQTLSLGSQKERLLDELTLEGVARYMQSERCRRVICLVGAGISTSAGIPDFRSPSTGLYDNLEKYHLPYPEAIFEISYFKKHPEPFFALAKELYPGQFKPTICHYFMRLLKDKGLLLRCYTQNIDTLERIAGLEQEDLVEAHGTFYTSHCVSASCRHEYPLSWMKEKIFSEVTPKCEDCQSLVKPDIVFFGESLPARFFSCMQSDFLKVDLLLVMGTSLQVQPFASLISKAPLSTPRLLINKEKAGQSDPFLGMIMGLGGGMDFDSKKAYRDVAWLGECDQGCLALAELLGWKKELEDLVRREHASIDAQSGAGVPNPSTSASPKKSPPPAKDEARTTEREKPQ
assay.procedure: Inhibition of His-tagged human recombinant SIRT2 expressed in Escherichia coli at 20 uM using Cbz-Lys(Ac)-AMC as substrate by fluorescence assay
parameter.measured: inhibition (%)

1. NC(=O)C1CCCc2c(-c3cc4cc(Br)ccc4s3)n[nH]c21 (racemic)
2. NC(=O)C1CCCc2c(-c3ccccc3Cl)n[nH]c21 (racemic)
Between the two listed entries 1 and 2 , which has its inhibition at the higher number? Output the label that corresponds to your choice.
1

* * *

subject.of.test: NAD-dependent protein deacetylase sirtuin-1 (Homo sapiens)
assay.procedure: Inhibition of His-tagged human recombinant SIRT1 expressed in Escherichia coli at 20 uM using Cbz-Lys(Ac)-AMC as substrate by fluorescence assay
parameter.measured: inhibition (%)

| compound | uom | value |
| --- | --- | --- |
| Cn1c(-c2n[nH]c3c2CCCC3C(N)=O)cc2cc(Cl)ccc21 (racemic) | % | 31 |
| CC1(C)Cc2c(-c3ccc(Cl)c(Cl)c3)n[nH]c2C(C(N)=O)C1 (racemic) | % | 23 |

* * *

subject.of.test: NAD-dependent protein deacetylase sirtuin-2 (Homo sapiens) (UniProt Q8IXJ6)
assay.procedure: Inhibition of His-tagged human recombinant SIRT2 expressed in Escherichia coli at 20 uM using Cbz-Lys(Ac)-AMC as substrate by fluorescence assay
parameter.measured: inhibition

| compound | inhibition |
| --- | --- |
| CC1(C)CCC(C(N)=O)c2[nH]nc(-c3ccc(Cl)cc3)c21 (racemic) | < 20% |

Form: Entry = NC(=O)C1CCCc2c(-c3ccc(C(F)(F)F)cc3)n[nH]c21 (racemic) | System = NAD-dependent protein deacetylase sirtuin-2 (Homo sapiens) (UniProt Q8IXJ6) | inhibition = ____
< 20%

Form: Entry = NC(=O)C1CCCc2c(-c3ccc(Cl)c(F)c3)n[nH]c21 (racemic) | System = NAD-dependent protein deacetylase sirtuin-2 (Homo sapiens) (UniProt Q8IXJ6) | inhibition = ____
44%

Form: Entry = Cc1ccc(-c2n[nH]c3c2CCCC3C(N)=O)cc1 (racemic) | System = NAD-dependent protein deacetylase sirtuin-2 (Homo sapiens) (UniProt Q8IXJ6) | inhibition = ____
36%

* * *

subject.of.test: NAD-dependent protein deacetylase sirtuin-1 (Homo sapiens)
assay.procedure: Inhibition of His-tagged human recombinant SIRT1 expressed in Escherichia coli at 20 uM using Cbz-Lys(Ac)-AMC as substrate by fluorescence assay
inhibition values by entry

Record excerpt, results attached:
| compound | subject.of.test | inhibition |
| --- | --- | --- |
| CCOC(=O)C1CCCc2c(-c3ccc(Cl)c(F)c3)n[nH]c21 (racemic) | NAD-dependent protein deacetylase sirtuin-1 (Homo sapiens) | < 20% |
| COc1ccc(-c2n[nH]c3c2CCCC3C(N)=O)cc1 (racemic) | NAD-dependent protein deacetylase sirtuin-1 (Homo sapiens) | < 20% |

Given CNC(=O)C1CCCc2c(-c3ccc(Cl)cc3)n[nH]c21 (racemic) , state its recorded inhibition.
< 20%
